- experimental target: T1, mouse NPS receptor (mouse) (UniProt Q8BZP8)
- T1 sequence: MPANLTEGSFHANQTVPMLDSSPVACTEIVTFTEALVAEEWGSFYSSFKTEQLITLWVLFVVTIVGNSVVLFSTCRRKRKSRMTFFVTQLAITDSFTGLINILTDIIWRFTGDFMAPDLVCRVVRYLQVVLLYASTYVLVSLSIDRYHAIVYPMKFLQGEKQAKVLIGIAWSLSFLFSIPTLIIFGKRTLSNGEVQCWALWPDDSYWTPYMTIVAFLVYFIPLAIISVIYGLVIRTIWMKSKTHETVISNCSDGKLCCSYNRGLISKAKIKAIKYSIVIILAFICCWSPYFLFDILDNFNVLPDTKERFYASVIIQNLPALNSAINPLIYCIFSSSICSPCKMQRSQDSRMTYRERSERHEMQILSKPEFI
Where no end group is shown, it is not given here.
Items are presented alongside their recorded EC50 of cAMP accumulation, HEK 293T mNPSR cells.
Give the value, in units of nM, as a plain number.

INSERT INTO measurements (binder, experimental_value) VALUES
  ('SFRNGV-NH2 [1. SerPheArgAsnGlyVal-NH2]', 13.4),
  ('SFRNGVGTGMKKTSFQRAKS [Neuropeptide S]', 3.67),
  ('SFRN-NH2 [3. SerPheArgAsn-NH2]', 800);

# ---- query binder ----
// returns reported EC50 of cAMP accumulation, HEK 293T mNPSR cells for input SFKN-NH2 [4. SerPheLysAsn-NH2] 911
